# targetUnderTest: ErbB-3 receptor-Ig fusion (homodimer) (human, UniProt P21860 20-643; P21860 20-636)
# Sequence (P21860 other isoform, or with tags, fused parts or gaps): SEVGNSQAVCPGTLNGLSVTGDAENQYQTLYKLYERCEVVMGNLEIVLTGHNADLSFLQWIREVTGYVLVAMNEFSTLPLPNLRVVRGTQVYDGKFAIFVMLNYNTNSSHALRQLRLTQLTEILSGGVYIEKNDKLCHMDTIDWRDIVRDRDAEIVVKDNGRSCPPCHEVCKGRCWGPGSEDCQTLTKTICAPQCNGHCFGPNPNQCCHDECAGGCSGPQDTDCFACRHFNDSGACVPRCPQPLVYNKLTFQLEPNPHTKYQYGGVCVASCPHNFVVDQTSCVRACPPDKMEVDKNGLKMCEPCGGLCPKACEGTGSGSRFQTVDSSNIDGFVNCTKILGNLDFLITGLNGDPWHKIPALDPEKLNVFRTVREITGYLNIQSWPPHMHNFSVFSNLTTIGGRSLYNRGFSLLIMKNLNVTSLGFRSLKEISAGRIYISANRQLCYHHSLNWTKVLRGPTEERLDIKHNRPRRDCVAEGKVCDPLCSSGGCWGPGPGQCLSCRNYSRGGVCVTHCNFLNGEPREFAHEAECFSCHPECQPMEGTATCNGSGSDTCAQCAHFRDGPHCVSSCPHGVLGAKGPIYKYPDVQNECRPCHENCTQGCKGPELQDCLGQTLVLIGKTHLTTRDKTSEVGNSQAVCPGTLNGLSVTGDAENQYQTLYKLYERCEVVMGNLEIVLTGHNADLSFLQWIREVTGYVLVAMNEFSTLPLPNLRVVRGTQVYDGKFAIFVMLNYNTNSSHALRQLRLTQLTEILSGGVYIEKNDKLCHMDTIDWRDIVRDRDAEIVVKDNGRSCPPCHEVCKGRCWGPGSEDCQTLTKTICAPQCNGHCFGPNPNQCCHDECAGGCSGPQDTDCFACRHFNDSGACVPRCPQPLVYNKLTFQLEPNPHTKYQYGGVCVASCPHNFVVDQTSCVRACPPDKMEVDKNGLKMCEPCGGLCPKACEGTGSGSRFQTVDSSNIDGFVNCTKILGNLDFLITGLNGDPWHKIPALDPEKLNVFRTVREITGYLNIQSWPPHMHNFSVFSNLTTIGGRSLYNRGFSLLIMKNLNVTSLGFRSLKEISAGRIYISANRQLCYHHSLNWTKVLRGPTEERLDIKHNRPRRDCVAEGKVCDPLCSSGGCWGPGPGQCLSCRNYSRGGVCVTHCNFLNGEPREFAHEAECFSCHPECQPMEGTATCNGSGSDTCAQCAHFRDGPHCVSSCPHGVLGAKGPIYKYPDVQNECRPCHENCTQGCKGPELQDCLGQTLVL
# methodSummary: phage ELISA, soluble ErbB-3-Ig as competitor
Ends that are not written are not given here.
EC50(wt)/EC50(mut) for assorted binders
Remember to quote the unit after the number.

// solved cases for EC50(wt)/EC50(mut) follow
binder	EC50(wt)/EC50(mut)
SHLVKCAEKEKTFCVNGGECYRVKTYGYLMCKCPNEFTGDRCQHYVIAS (ligand, not fully specified; cysteine pairing not given here, not shown: Display carrier only: (GGGS)3 linker and the M13 pIII C-terminal fragment from residue 323) [combination variant HRG71, phage-displayed]	79 ratio
HRG-β1 EGF variant B5, phage-displayed (ligand, not fully specified; cysteine pairing not given here, pHRG8-g3 scaffold; not shown: Display carrier only: the (GGGS)3 linker and the M13 pIII C-terminal fragment from residue 323) SHLVKCGWDREGFCVNGGECFMVKDLSNPSRYLCKCPNEFTGDRCQNYVIAS	26 ratio

Item under review: HRG-β1 EGF variant D4, phage-displayed (ligand, not fully specified; cysteine pairing not given here, pHRG8-g3 scaffold; not shown: Display carrier only: the (GGGS)3 linker and the M13 pIII C-terminal fragment from residue 323) SHLVKCAEKEKTFCVNGGECYRVKTLSNPSRYLCKCPNEFTGDRCQNYVMAS . Reported EC50(wt)/EC50(mut)? 2.9 ratio

Item under review: HRG8: wild-type HRG-β1 177-228 (HRG-β1 EGF 1-52) fused via (GGGS)3 to pIII 323, phage-displayed (ligand, phage M13, range 323-end; Monovalent M13 phage display; also called wild-type HRG-β1 EGF-phage) SHLVKCAEKEKTFCVNGGECFMVKDLSNPSRYLCKCPNEFTGDRCQNYVMASGGGSGGGSGGGSNSQMAQVGDGDNSPLMNNFRQYLPSLPQSVECRPFVFSAGKPYEFSIDCDKINLFRGVFAFLLYVATFMYVFSTFANILRNKES . Reported EC50(wt)/EC50(mut)? 1 ratio

Item under review: HRG-β1 EGF variant B10, phage-displayed (ligand, not fully specified; cysteine pairing not given here, pHRG8-g3 scaffold; not shown: Display carrier only: the (GGGS)3 linker and the M13 pIII C-terminal fragment from residue 323) SHLVKCDKSREGFCVNGGECFMVKDLSNPSRYLCKCPNEFTGDRCQNYVIAS . Reported EC50(wt)/EC50(mut)? 9.3 ratio

Item under review: combination variant HRG59, phage-displayed (ligand, not fully specified; cysteine pairing not given here, not shown: Display carrier: (GGGS)3 linker and M13 pIII C-terminal fragment from residue 323) SHLVKCAEKEKTFCVNGGECYRVKTLSNPSRYLCKCPNEFTGDRCQNYVIAS . Reported EC50(wt)/EC50(mut)? 26 ratio
